Entries and their measured inhibition follow.
system tested: Urease (Canavalia ensiformis)
assay remarks: Inhibition of Canavalia ensiformis (jack bean) urease assessed as ammonia production using urea as substrate at 100 uM after 15 min by indophenol method
observation type: inhibition (%)

{"structure string": "CC1=CC2=NC(=O)CC(=O)N2C=C1", "observed": 39}
{"structure string": "NC(N)=S", "observed": 94}
{"structure string": "CC1=CC2=NC(=O)/C(=C\\NNC(=O)c3ccccc3)C(=O)N2C=C1", "observed": 26}

----------
system tested: UniProt:P07374
Sequence (P07374 whole entry, looked up): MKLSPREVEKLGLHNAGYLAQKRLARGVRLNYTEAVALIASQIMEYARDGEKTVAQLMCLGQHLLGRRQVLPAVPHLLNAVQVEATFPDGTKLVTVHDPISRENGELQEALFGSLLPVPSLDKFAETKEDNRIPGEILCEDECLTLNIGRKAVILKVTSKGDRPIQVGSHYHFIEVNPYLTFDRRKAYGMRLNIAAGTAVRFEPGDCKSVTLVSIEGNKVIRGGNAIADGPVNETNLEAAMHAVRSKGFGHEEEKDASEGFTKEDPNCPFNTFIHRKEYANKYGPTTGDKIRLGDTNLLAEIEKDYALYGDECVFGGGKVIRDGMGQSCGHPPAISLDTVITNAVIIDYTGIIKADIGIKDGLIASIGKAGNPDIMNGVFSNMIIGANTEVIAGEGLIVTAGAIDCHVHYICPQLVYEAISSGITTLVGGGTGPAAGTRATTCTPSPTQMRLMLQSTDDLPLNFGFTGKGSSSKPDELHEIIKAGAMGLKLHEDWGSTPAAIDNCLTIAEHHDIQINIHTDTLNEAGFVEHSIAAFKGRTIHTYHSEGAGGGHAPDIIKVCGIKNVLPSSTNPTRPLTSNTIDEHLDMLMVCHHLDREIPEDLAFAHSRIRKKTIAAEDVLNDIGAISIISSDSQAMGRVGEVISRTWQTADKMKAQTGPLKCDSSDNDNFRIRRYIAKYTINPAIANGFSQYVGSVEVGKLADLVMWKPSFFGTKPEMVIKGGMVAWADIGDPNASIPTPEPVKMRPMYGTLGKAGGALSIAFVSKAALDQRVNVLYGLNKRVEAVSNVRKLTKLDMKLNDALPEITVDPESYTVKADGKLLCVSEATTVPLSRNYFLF
assay remarks: Inhibition of Canavalia ensiformis (jack bean) urease assessed as ammonia production using urea as substrate at 100 uM after 15 min by indophenol method
observation type: inhibition (%)

{"structure string": "CC1=CC2=NC(=O)/C(=C\\NNC(=O)c3ccc(Cl)cc3)C(=O)N2C=C1", "observed": 43}
{"structure string": "CC(=O)c1ccccc1N/C=C1\\C(=O)N=C2C=C(C)C=CN2C1=O", "observed": 69}
{"structure string": "CC1=CC2=NC(=O)/C(=C\\Nc3ccccc3F)C(=O)N2C=C1", "observed": 57}
{"structure string": "CC(=O)c1cccc(N/C=C2\\C(=O)N=C3C=C(C)C=CN3C2=O)c1", "observed": 45}
{"structure string": "CC1=CC2=NC(=O)/C(=C\\Nc3cccc(F)c3)C(=O)N2C=C1", "observed": 28}
